Origin of the recorded values: patent US20110166062A1

target: glucagon receptor (UniProt P47871 26-477, limits assumed); assay: cell-based or functional assay
Sequence (P47871 26-477 limits assumed): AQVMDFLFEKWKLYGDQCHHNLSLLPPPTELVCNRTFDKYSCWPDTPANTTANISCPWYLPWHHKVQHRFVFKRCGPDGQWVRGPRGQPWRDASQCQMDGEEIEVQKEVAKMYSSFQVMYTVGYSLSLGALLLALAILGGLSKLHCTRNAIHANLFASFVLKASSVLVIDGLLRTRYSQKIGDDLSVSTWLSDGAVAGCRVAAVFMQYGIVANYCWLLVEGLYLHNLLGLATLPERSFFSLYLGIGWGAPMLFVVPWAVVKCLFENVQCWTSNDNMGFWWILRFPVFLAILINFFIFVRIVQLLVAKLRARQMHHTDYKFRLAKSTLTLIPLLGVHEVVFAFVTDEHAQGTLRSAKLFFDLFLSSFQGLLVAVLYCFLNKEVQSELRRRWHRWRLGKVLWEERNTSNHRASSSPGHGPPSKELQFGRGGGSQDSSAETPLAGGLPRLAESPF
Bridges are numbered along the chain shown (N, C = ends). Primed or numbered codes have the meaning given here. Where no end group is shown, it is not given here. Side-chain parts run from the residue outwards. [ ]: non-standard residue; d: D form. maleimide = maleimide group on activated PEG, it reacts with the Cys thiol (Michael addition) to give a thioether linkage; PEG 40 kDa″ = polyethylene glycol of 40 kDa covalently attached to the side chain; PEG 40 kDa = PEG (40 kDa) covalently attached to Cys; Aib = CC(C)(N)C(=O)O
Exercise: state measured relative activity for each of the binders provided.
Numeric only. Scale: %

Reported relative activity for Y[Aib]QGTFTSDYSIYLDEQAAKEFVC(PEG 40 kDa)WLLAGGPSSGAPPPS-NH2 (lactam 16-20) [mt-175] was 1.49

Reported relative activity for Y[Aib]EGTFTSDYSIYLDEQAAKEFVNWLLAGGPSSGAPPPSC([maleimide-PEG 40 kDa])-NH2 (lactam 16-20) [mt-178] was 0.42

Reported relative activity for Y[Aib]QGTFTSDYSIYLDEQAAKEFVC(PEG 40 kDa″)WLMNG-NH2 (lactam 16-20) [mt-186] was 2.22
